Value source: patent US9951039B2

Test system: USA300 #757 (community-associated MRSA)
experimental_protocol: MIC against clinically isolated strain 7
Assay type: cell-based, S. aureus
condition_summary: Staphylococcus aureus
recorded_metric: MIC (µM)
Report the figure in µM without appending any unit label.

Query the reported MIC for USA300 #757 (community-associated MRSA); item: CC(C)c1ccc(CN2CCCN(CCc3cc(-c4ccccc4)nc(-c4ccncc4)n3)CC2)cc1
10

Any idea what MIC came out for FC(F)(F)c1ccc(CN2CCCN(CCc3cc(-c4ccccc4)nc(-c4ccncc4)n3)CC2)cc1 on USA300 #757 (community-associated MRSA)?
10

Checklist item: MIC tested on USA300 #757 (community-associated MRSA), entry COc1cccc(OC)c1C(=O)N[C@@H]1C(=O)N2[C@@H]1SC(C)(C)[C@@H]2C(=O)O [Methicillin, reference compound] , value?
30

// map CCC(CC)c1cc(CCN2CCCN(Cc3ccc(C(F)(F)F)cc3)CC2)nc(-c2ccncc2)n1 to recorded MIC (system: USA300 #757 (community-associated MRSA))
12
